- protocol-text: self-splicing fitness, log relative to wild type (ln ratio); higher = more splicing; Tetrahymena group I intron in knt gene, E. coli kanamycin selection, DiMSum; sequences stand for … in CUCUCU…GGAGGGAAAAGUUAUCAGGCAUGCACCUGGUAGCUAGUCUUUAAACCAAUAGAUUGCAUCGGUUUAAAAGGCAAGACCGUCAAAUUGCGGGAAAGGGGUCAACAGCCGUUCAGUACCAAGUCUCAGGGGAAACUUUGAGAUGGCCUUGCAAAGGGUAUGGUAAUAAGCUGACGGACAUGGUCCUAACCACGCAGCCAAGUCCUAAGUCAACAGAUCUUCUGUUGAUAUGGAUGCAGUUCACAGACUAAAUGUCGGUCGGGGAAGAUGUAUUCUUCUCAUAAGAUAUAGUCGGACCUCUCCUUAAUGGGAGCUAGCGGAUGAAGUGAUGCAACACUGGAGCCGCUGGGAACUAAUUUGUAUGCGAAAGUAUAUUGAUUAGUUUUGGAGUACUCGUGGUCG;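 further: selection with 25 µg/mL kanamycin versus none on LB agar overnight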
- condition-details: 30 °C
Please provide measured self-splicing fitness (ln) for the entries that follow.
One number for each entry.

For every item in the list below, what is its measured self-splicing fitness (ln)?
1. CGCCAGCAAUAUUACGCCUC
2. CGCAAGCAAUAUUACGUCAA
3. UCCGAGCAAUAUUACGAUUU

1. -3.25
2. -3.1
3. -3.56
